Target: UniProtKB P08684
Sequence (P08684 whole entry): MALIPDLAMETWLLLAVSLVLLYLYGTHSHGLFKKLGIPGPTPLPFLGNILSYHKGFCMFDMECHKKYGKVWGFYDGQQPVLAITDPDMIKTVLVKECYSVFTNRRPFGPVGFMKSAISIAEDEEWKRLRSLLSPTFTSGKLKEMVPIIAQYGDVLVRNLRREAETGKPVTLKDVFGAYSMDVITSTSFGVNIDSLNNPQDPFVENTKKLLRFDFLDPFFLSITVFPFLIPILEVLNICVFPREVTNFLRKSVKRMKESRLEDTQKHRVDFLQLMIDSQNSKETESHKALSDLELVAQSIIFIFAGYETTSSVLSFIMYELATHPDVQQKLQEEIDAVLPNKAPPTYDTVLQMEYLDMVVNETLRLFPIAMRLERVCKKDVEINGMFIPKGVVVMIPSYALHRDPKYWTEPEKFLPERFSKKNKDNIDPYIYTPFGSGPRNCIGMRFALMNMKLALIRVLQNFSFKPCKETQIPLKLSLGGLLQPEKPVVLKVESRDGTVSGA
Cut-off 20 µM on AC50: below means Fulfilled, at or above means Not fulfilled.

Previously resolved entries follow.
input: Decide: AC50 of C[C@]12CC[C@H]3[C@@H](CCC4=CC(=O)CC[C@@H]43)[C@@H]1CC[C@@H]2OC(=O)CCC1CCCCC1 [Nandrolone cyclohexylpropionate] strictly below 20 µM?
output: Fulfilled

input: Decide: AC50 of Nc1ccccc1S(=O)(=O)c1ccccc1 [2-(Phenylsulfonyl)aniline] strictly below 20 µM?
output: Not fulfilled

input: Decide: AC50 of CN(C)CCc1c[nH]c2ccccc12.O=C(O)/C=C/C(=O)O [N,N-Dimethyltryptamine fumarate] strictly below 20 µM?
output: Not fulfilled

input: Decide: AC50 of CC(C)COC(=O)C=Cc1ccccc1 [Isobutyl 3-phenylacrylate] strictly below 20 µM?
output: Not fulfilled

input: Decide: AC50 of CCCOC(=O)c1c(Cl)c(Cl)c(Cl)c(Cl)c1C(=O)OCCC strictly below 20 µM?
output: Fulfilled

input: Decide: AC50 of CCOC(=O)c1ccc(N(C)C)cc1 [Parbenate] strictly below 20 µM?
output: Not fulfilled

input: Decide: AC50 of C=C(C)C(=O)OCC(O)COc1ccc(C(C)(C)c2ccc(OCC(O)COC(=O)C(=C)C)cc2)cc1 (stereo not drawn) [Bisphenol A glycidyl methacrylate] strictly below 20 µM?
output: Fulfilled

input: Decide: AC50 of Cl.OC(CNCC(O)C1CCc2cc(F)ccc2O1)C1CCc2cc(F)ccc2O1 (racemic) [rac Nebivolol hydrochloride] strictly below 20 µM?
output: Fulfilled

input: Decide: AC50 of O=C(O)c1ccc(OCCCOc2ccc(C(=O)O)cc2)cc1 [1,3-Bis(4-carboxyphenoxy)propane] strictly below 20 µM?
output: Not fulfilled

input: Decide: AC50 of O=C(C=Cc1ccccc1)OCCc1ccccc1 [2-Phenylethyl 3-phenylprop-2-enoate] strictly below 20 µM?
output: Fulfilled

New cases:
input: Decide: AC50 of O=C(c1ccc(O)cc1)c1ccc(O)cc1O [2,4,4'-Trihydroxybenzophenone] strictly below 20 µM?
output: Fulfilled

input: Decide: AC50 of Cc1cc(C)nc(O)n1.O=C(Nc1ccc([N+](=O)[O-])cc1)Nc1ccc([N+](=O)[O-])cc1 [Nicarbazin] strictly below 20 µM?
output: Fulfilled

input: Decide: AC50 of CC1=Nc2ccc3ccccc3c2C1(C)C [1,1,2-Trimethyl-1H-benzo[e]indole] strictly below 20 µM?
output: Fulfilled

input: Decide: AC50 of O=C([O-])CCCOc1ccc(Cl)cc1Cl.[Na+] [2,4-DB-sodium] strictly below 20 µM?
output: Not fulfilled

---

Target: UniProt:P11712
Sequence (P11712 whole entry): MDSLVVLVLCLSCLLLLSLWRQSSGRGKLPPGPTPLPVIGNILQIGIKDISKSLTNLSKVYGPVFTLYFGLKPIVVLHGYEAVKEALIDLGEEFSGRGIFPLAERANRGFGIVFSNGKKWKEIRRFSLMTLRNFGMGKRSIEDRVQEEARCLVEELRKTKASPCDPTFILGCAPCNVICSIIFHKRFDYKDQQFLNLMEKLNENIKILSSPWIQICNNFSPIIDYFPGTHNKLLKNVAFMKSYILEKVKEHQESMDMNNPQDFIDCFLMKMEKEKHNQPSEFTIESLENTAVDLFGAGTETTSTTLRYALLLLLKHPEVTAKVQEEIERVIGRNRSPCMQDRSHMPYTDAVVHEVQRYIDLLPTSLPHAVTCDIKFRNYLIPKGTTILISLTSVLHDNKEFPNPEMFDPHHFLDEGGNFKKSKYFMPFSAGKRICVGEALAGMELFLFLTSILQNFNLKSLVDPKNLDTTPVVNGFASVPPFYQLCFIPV
Assay: biochemical
Where a name gives a salt, the structure may show the parent alone.
# AC50 binned as I (below 9 µM), II (9 µM to below 40 µM), III (40 µM or more)

Previously resolved entries follow.
input: Tag the class for O=C(OCCc1ccccc1)c1ccccc1 [2-Phenylethyl benzoate]
output: II

input: Tag the class for O=C(Oc1ccccc1)c1ccccc1 [Phenyl benzoate]
output: III

input: Tag the class for CC(=O)OC(c1ccccc1)C(Cl)(Cl)Cl (centres unmarked) [2,2,2-Trichloro-1-phenylethyl acetate]
output: III

input: Tag the class for CCOC(=O)Cc1cccc2ccccc12 [Ethyl 1-naphthaleneacetate]
output: III

New cases:
input: Tag the class for O=S(=O)(c1ccccc1)c1ccc(Cl)cc1
output: I

input: Tag the class for O=C1c2ccccc2CCc2ccccc21
output: II

input: Tag the class for CCCCCCCCCCOS(=O)(=O)O [Sodium decyl sulfate]
output: II

input: Tag the class for COC(=O)c1c(Cl)c(Cl)c(C(=O)OC)c(Cl)c1Cl
output: I

input: Tag the class for CC(C)(C)c1ccc(OC(=O)c2ccccc2O)cc1 [4-tert-Butylphenyl salicylate]
output: II

input: Tag the class for O=P(c1ccccc1)(c1ccccc1)c1ccccc1 [Triphenylphosphine oxide]
output: I
